Experimental system: T1, monovalent hVISTA-ECD (human VISTA extracellular domain with His tail) (human, UniProt Q9H7M9 33-193)
T1 construct: analyte flowed over captured antibody; also called huVISTA-His
T1 sequence (Q9H7M9 other isoform, or with tags, fused parts or gaps limits assumed): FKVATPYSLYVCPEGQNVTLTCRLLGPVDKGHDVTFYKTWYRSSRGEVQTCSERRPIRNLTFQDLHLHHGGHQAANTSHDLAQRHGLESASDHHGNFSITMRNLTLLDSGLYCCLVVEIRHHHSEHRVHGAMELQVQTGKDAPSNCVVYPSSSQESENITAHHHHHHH
Procedure text: SPR, pH 6.0
Procedure: Binding of several preparations of each of the '029 progeny clones and of the parent '029 antibodies, formatted as IgG1.3 antibodies, to human VISTA at pH 6.0 and 7.4 was measured by Surface plasmon resonance (SPR). SPR analysis was performed to measure koff and KD binding affinity measurements for VISTA Abs at acidic and neutral pHs using a Biacore® T100 instrument (GE Healthcare). […] The affinity constant, KD was calculated as the ratio of rate constants koff/kₒₙ for each VISTA antibody. […]
Measured attribute: kon (M⁻¹ s⁻¹)

Binder	Measured attribute	Unit of measurement	Test value
P1-065316 (41F11_VH_A60H VK A64G) (antibody, V domains shown, Kabat positions; also called P1-065316-1) VH: QVQLVESGGGLVKPGGSLRLSCAASGFTFSDYYMSWIRQAPGKGLEWVSYISNSGSPIYYHDSVKGRFTISRDNAKNSLYLQMNSLRAEDTAVYYCARDLPGWYFDLWGRGTLVTVSS VL: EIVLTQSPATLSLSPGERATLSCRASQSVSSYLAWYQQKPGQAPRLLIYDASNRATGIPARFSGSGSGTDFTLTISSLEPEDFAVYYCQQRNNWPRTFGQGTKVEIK	kon	M⁻¹ s⁻¹	3.86e+06
P1-065325 (41F11_VH_D31E/Y50W/S55E/A60H/Y100E VK_A64G) (antibody, V domains shown, Kabat positions; also called P1-065325-1) VH: QVQLVESGGGLVKPGGSLRLSCAASGFTFSEYYMSWIRQAPGKGLEWVSWISNSGEPIYYHDSVKGRFTISRDNAKNSLYLQMNSLRAEDTAVYYCARDLPGWEFDLWGRGTLVTVSS VL: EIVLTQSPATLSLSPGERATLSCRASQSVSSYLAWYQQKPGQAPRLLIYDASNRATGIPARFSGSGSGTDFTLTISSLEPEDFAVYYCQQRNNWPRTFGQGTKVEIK	kon	M⁻¹ s⁻¹	7.99e+06
P1-064480 (41F11_VH_A60H) (antibody, V domains shown, Kabat positions; also called P1-064480-1) VH: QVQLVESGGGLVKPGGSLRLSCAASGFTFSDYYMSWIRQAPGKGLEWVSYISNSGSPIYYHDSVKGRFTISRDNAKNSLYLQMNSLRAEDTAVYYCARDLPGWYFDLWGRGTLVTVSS VL: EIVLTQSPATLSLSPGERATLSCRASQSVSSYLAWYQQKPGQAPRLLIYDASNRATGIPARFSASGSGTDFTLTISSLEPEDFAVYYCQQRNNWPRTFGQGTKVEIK	kon	M⁻¹ s⁻¹	2.32e+06
